# Tested on: L. amazoniensis promastigotes
# Test Details: Leishmanicidal activity against L. amazoniensis promastigotes (XTT)
# Conditions: L. amazoniensis SI (selectivity index, cytotoxicity/anti-protozoal activity), RAW cell IC50 / L. amazoniensis IC50
Property: selectivity ratio at 72 h; scope: individual compounds

Compound Structure	selectivity ratio at 72 h
COc1ccc2c(c1)-c1cc(COC(=O)CC(C)(C)C)ccc1C(C)(C)O2	1
COc1ccc2c(c1)-c1cc(COC(=O)C(C)C)ccc1C(C)(C)O2	1
C=CC(=O)OCc1ccc2c(c1)-c1cc(OC)ccc1OC2(C)C	> 5
COc1ccc2c(c1)-c1cc(C(=N)NO)ccc1C(C)(C)O2	0.5
COc1ccc2c(c1)-c1cc(COC(C)=O)ccc1C(C)(C)O2	1.2
COc1ccc2c(c1)-c1cc(C(=O)O)ccc1C(C)(C)O2	1.2
COc1ccc2c(c1)-c1cc(C(N)=O)ccc1C(C)(C)O2	0.4
CCCC(=O)OCc1ccc2c(c1)-c1cc(OC)ccc1OC2(C)C	1.3
COC(=O)c1ccc2c(c1)-c1cc(OC)ccc1OC2(C)C	0.7
